test system: AmGSTF1; test: CDNB assay: inhibition of AmGSTF1-catalysed glutathionylation of CDNB; assay type: biochemical, Alopecurus myosuroides; conditions: 100 µM compound; three replicate measurements
Category scheme (CDNB Assay % Inhibition): lo: < 60%; med: ≥ 60% and < 80%; hi: ≥ 80%

> print(dat)
                                   compound  class.assignment
1  COc1cc(OC)c2c(=O)cc(-c3ccc(OC)c(OC)c3)oc2c1 [18g]                hi
2  COc1cc(OC)c2c(=O)cc(N3CCCCC3)oc2c1 [17c]               med

**Query** Class (by measured CDNB Assay % Inhibition) for COc1cc(NC(=O)c2cc(=O)c3c(OC)cc(OC)cc3o2)cc(OC)c1 [16b]
**Result** lo

**Query** Class (by measured CDNB Assay % Inhibition) for `O=c1cc(-c2ccccc2)oc2cc(OCC3CC3)cc(O)c12`
**Result** med

**Query** Class (by measured CDNB Assay % Inhibition) for `COc1cc(OC)c2c(=O)cc(-c3ccn(C)n3)oc2c1`
**Result** med

**Query** Class (by measured CDNB Assay % Inhibition) for `CCCCCC(=O)Oc1cc(O)c2c(=O)cc(-c3ccccc3)oc2c1`
**Result** lo

**Query** Class (by measured CDNB Assay % Inhibition) for `O=c1cc(-c2ccccc2)oc2cc(N3CCCCC3)cc(O)c12`
**Result** hi

**Query** Class (by measured CDNB Assay % Inhibition) for Oc1cc(O)c2c(c1)OC(c1ccc(O)c(O)c1)C(O)C2 (stereo not drawn) [compound 10, catechin, reference compound]
**Result** lo

----------
system: AmGSTF1; assay: CDNB assay: inhibition of AmGSTF1-catalysed glutathionylation of CDNB; format: biochemical, Alopecurus myosuroides; conditions: 1 µM compound; three replicate measurements
REPORTED_PROPERTY: CDNB Assay % Inhibition
Put your answer as a value accompanied by its unit after it.

Answered cases to consult:
> print(dat)
                                   molecule  obs.value
1  CCCCC(=O)NCCCCC(Oc1cc(OC)cc2oc(-c3ccccc3)cc(=O)c12)C(=O)O (stereo not drawn) [compound 52]         6%
2  CCCCCCCCCCC(Oc1cc(OC)cc2oc(-c3ccccc3)cc(=O)c12)C(=O)O (stereo not drawn) [compound 45]        71%
3  CCCCCCCC(Oc1cc(OC)cc2oc(-c3ccccc3)cc(=O)c12)C(=O)O (stereo not drawn) [compound 43]        40%

I looked up COc1cc(OC(C(=O)O)c2ccccc2)c2c(=O)cc(-c3ccccc3)oc2c1 (stereo not drawn) [compound 48] and its CDNB Assay % Inhibition for AmGSTF1 was 16%

I looked up COc1cc(OC(C(=O)O)c2ccc(Cl)cc2)c2c(=O)cc(-c3ccccc3)oc2c1 (stereo not drawn) [compound 49] and its CDNB Assay % Inhibition for AmGSTF1 was 27%

I looked up COc1cc(OC(Cc2ccccc2)C(=O)O)c2c(=O)cc(-c3ccccc3)oc2c1 (stereo not drawn) [compound 50] and its CDNB Assay % Inhibition for AmGSTF1 was 8%

----------
system: AmGSTF1; test: CDNB assay: inhibition of AmGSTF1-catalysed glutathionylation of CDNB; assay type: biochemical, Alopecurus myosuroides; conditions: 100 µM compound; three replicate measurements
Use 1 (yes) when the recorded CDNB Assay % Inhibition is no lower than 40%; use 0 (no) when it is lower.

Reference set (8 entries):
> print(dat)
                                   compound  class.assignment
1  COc1ccc(-c2cc(=O)c3c(OC)cc(OC)cc3o2)cc1 [18c]           1 (yes)
2  COc1cc(OC)c2c(=O)cc(-c3ccccc3C)oc2c1 [18j]            0 (no)
3  O=c1cc(-c2ccccc2)oc2cc(N3CCOCC3)cc(O)c12 [compound 39]           1 (yes)
4  COc1cc(OC)c2c(=O)cc(C(=O)Nc3ccc(C)cc3)oc2c1 [16c]           1 (yes)
5  COc1cc(OC)c2c(=O)cc(N3CCOCC3)oc2c1 [17b]            0 (no)
6  COc1ccc(CNc2cc(O)c3c(=O)cc(-c4ccccc4)oc3c2)cc1 [compound 36]           1 (yes)
7  O=c1cc(-c2ccccc2)oc2cc(OCc3cccnc3)cc(O)c12 [compound 35]           1 (yes)
8  COc1cc(OC)c2c(=O)cc(N3CCN(C)CC3)oc2c1 [17a]            0 (no)

Please turn your attention to the following entry.
**Query** Is reported CDNB Assay % Inhibition greater than or equal to 40% here: O=C(Oc1cc(O)c2c(=O)cc(-c3ccccc3)oc2c1)c1ccccc1 [compound 27]
**Result** 0 (no)
